Target of assay: hPK-M2 (Homo sapiens)
Assay comment: Luminescent pyruvate kinase-luciferase coupled assay (KinaseGlo)
Format: biochemical
Particulars: luminescent pyruvate kinase-luciferase coupled assay (KinaseGlo), tables; read-out: hPK, M2 AC50
Protocol: Luminescent Pyruvate Kinase-Luciferase Coupled Assay. Production of a luminescent signal based on the generation of ATP by pyruvate kinase was determined by using the ATP-dependent enzyme firefly luciferase. […] Microtiter plates were incubated at r.t. for 1 hour and 2 uL of luciferase detection mix (Kinase-Glo, Promega at 4° C. protected from light) was added and luminescence was read with a ViewLux (Perkin Elmer) using a 5 second exposure/plate. […]
Property: AC50 (nM)

Example results:
[
  {
    "Smiles code": "O=S(=O)(c1ccc2c(c1)OCCO2)C1CCN(S(=O)(=O)c2c(F)cccc2F)CC1",
    "Target of assay": "hPK-M2 (Homo sapiens)",
    "AC50 / nM": 863
  },
  {
    "Smiles code": "O=S(=O)(c1cccc(O)c1)N1CCN(S(=O)(=O)c2c(F)cccc2F)CC1",
    "Target of assay": "hPK-M2 (Homo sapiens)",
    "AC50 / nM": 183
  }
]

a. COc1cc(F)c(S(=O)(=O)N2CCN(S(=O)(=O)c3ccc(N)cc3)CC2)c(F)c1
b. CC(=O)Nc1cccc(S(=O)(=O)N2CCCN(S(=O)(=O)c3ccc4c(c3)OCCO4)CC2)c1
Return label of the item with the larger AC50. Candidates: a , b . Write down the label of the entry you select.
b
(b: 819 nM, a: 130 nM)

---

Target of assay: hPK-M2 (Homo sapiens, UniProt P14618)
Sequence (P14618 whole entry): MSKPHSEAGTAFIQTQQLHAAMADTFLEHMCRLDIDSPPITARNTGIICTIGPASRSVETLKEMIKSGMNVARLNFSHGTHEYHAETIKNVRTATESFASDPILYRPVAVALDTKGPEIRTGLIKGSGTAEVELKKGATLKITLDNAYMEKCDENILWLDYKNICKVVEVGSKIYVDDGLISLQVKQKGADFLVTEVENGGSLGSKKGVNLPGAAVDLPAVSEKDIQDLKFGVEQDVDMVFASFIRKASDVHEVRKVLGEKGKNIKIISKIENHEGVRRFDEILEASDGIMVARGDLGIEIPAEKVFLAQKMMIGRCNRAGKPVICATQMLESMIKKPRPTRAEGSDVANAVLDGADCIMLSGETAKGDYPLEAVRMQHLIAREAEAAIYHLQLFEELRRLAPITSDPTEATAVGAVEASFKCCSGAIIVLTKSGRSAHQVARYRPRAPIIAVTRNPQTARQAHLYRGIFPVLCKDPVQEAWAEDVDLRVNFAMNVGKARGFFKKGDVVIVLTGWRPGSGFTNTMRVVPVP
Assay comment: Fluorescent pyruvate kinase-lactate dehydrogenase (LDH) coupled secondary assay
Format: biochemical
Particulars: read-out: maximum response, LDH assay
Property: Emax (%)

Example results:
[
  {
    "Compound": "CC(=O)c1cc2c(s1)c1cnn(Cc3ccccc3F)c(=O)c1n2C [Compound 87]",
    "Target of assay": "hPK-M2 (Homo sapiens, UniProt P14618)",
    "Emax [%]": 200
  },
  {
    "Compound": "Cn1c2cc([S+](C)[O-])sc2c2cnn(Cc3ccccc3F)c(=O)c21 (centres unmarked) [Compound 73]",
    "Target of assay": "hPK-M2 (Homo sapiens, UniProt P14618)",
    "Emax [%]": 211
  },
  {
    "Compound": "O=C1CN(S(=O)(=O)c2ccc3c(c2)OCCO3)CCN1S(=O)(=O)c1c(F)cccc1F [Compound 50]",
    "Target of assay": "hPK-M2 (Homo sapiens, UniProt P14618)",
    "Emax [%]": 82
  },
  {
    "Compound": "Cn1c2cc(CO)sc2c2cnn(Cc3ccccc3F)c(=O)c21 [Compound 85]",
    "Target of assay": "hPK-M2 (Homo sapiens, UniProt P14618)",
    "Emax [%]": 155
  },
  {
    "Compound": "Cc1cc2c(s1)c1cnn(Cc3c(F)cccc3F)c(=O)c1n2C [Compound 113]",
    "Target of assay": "hPK-M2 (Homo sapiens, UniProt P14618)",
    "Emax [%]": 240
  },
  {
    "Compound": "O=S(=O)(N[C@H]1CC[C@H](NS(=O)(=O)c2c(F)cccc2F)CC1)c1ccc2c(c1)OCCO2 [Compound 37]",
    "Target of assay": "hPK-M2 (Homo sapiens, UniProt P14618)",
    "Emax [%]": 56
  }
]

1. O=S(=O)(c1c(F)cccc1F)N1CCN(S(=O)(=O)c2c(F)cccc2F)CC1 [Compound 22]
2. O=S(=O)(c1cccc(F)c1)N1CCN(S(=O)(=O)c2ccc3c(c2)OCCO3)CC1 [Compound 7]
3. O=S(=O)(N[C@H]1CC[C@@H](NS(=O)(=O)c2c(F)cccc2F)CC1)c1ccc2c(c1)OCCO2 [Compound 38]
4. COc1ccc(S(=O)(=O)N2CCN(S(=O)(=O)c3c(F)cccc3F)CC2)cc1 [Compound 21]
Thanks in advance: please rank these 4 entries by Emax, highest to lowest. Reply with the labels, ordered as the question asks.
2, 4, 1, 3
